Source of measurements: ChEMBL document CHEMBL3351862

biological target: Cholinesterase (Homo sapiens, UniProt P06276)
Sequence (P06276 whole entry): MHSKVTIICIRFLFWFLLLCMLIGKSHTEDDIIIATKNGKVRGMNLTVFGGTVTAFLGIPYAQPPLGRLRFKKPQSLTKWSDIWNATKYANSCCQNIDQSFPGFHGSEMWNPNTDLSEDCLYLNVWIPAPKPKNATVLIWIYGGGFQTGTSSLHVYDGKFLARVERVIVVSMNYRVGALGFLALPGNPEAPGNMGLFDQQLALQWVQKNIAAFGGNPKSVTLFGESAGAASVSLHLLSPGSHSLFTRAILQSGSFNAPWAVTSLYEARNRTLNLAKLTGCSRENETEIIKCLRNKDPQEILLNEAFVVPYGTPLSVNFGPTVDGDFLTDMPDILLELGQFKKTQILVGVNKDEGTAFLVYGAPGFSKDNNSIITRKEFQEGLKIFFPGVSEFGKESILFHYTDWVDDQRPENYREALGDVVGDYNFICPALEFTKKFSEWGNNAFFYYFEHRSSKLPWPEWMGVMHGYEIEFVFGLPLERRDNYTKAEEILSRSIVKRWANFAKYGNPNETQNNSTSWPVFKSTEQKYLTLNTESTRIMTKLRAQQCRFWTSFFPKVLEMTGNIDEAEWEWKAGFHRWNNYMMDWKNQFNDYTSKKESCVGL
pIC50: −log10 of the molar value.
quantity: pIC50

{"molSmiles": "Cc1cc(=O)oc2cc(OCCCCCCCN3CCN(CC(=O)Nc4c5c(nc6ccccc46)CCCC5)CC3)ccc12", "quantity": "pIC50", "assayResult": 7.00}

---

target: Acetylcholinesterase (Homo sapiens, UniProt P22303)
Sequence (P22303 whole entry): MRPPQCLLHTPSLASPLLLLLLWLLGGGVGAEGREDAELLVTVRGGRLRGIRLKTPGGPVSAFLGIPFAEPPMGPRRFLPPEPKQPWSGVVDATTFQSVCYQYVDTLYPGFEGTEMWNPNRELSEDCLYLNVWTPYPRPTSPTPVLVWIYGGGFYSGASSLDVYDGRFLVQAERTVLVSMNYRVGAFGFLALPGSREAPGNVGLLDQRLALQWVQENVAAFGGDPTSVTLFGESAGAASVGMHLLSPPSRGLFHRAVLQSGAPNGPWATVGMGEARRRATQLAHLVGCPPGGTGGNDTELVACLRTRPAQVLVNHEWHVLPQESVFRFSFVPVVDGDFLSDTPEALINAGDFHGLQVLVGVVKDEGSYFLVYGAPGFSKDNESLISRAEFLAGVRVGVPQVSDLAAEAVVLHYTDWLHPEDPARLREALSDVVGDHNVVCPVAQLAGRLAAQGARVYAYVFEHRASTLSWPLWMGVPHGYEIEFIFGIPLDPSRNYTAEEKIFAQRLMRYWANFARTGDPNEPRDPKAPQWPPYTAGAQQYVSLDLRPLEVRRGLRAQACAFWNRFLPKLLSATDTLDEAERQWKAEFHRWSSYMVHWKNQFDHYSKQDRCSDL
pIC50: −log10 of the molar value.
quantity: pIC50

{"molSmiles": "Cc1cc(=O)oc2cc(OCCN3CCN(CC(=O)Nc4c5c(nc6ccccc46)CCCC5)CC3)ccc12", "assayResult": 7.04}

---

system: KB; assay: Anticancer activity against human KB cells; format: functional, cell-based
quantity: IC50 (mM)

{"molSmiles": "COc1cc(OC)cc(-c2cc3ccc(OC(C)=O)c(OC(C)=O)c3oc2=O)c1", "assayResult": 5.18}
